# System: MALME-3M melanoma
# TEST SUMMARY: NCI tumour cell line growth inhibition, 48 h; in the data active means GI50 below about 0.43 µM; inactive means the rest
Answer with one of the outcomes given here: 1.0 for active, 0.0 for inactive

O=C1c2cccc(NCCN=Cc3cc([N+](=O)[O-])ccc3O)c2C(=O)c2c(NCCN=Cc3cc([N+](=O)[O-])ccc3O)cccc21 ... 0.0

Problem: Hi, do you know how COc1cccc2c1ccc1nc3cccc(C(=O)N[C@H](C)CN(C)C)c3nc12 came out in this test?
Solution: 1.0

Problem: Recorded call for CNC(=O)c1cccc2cc(Oc3ccnc4cc(OCC5(N)CC5)c(OC)cc34)ccc12 ?
Solution: 0.0

* * *

# Tested on: SF-295 CNS
# TEST SUMMARY: NCI tumour cell line growth inhibition, 48 h
QUANTITY: TGI

CCOC(=O)Cn1c(=O)c2nc(SC)sc2n(CC)c1=S ... > 100 µM
O=C(CC(=O)C1=CNc2ccccc2S1)C(=O)Nc1ccc(Cl)cc1 ... > 50 µM

The record that follows has no TGI shown yet.
Problem: Look up TGI for this compound: Cc1cccc(CP(Cc2cccc(C)c2)CC2(Cp3c4ccccc4c4ccccc43)COC2)c1
Solution: > 100 µM

* * *

# System: HOP-92 NSCLC
# TEST SUMMARY: NCI tumour cell line growth inhibition, 48 h
QUANTITY: GI50

COc1cccc(-n2nc(C)c3c(N/N=C(\C)c4ccncc4)ncnc32)c1 ... 1860 nM
CCOC(=O)c1c2c(n(Cc3ccc(Cl)cc3Cl)c1C)-c1nc[nH]c1C(=O)C2=O ... 1280 nM

Problem: Quick one: GI50 of O=S(=O)(Nc1ccc(Br)c(Cl)c1)c1ccc(-c2cnc(C3CC3)o2)cc1 ?
Solution: 487 nM

* * *

The following compounds are shown together with reported TGI values.
# Test system: UO-31 renal
# TEST SUMMARY: NCI tumour cell line growth inhibition, 48 h

Recorded TGI, per entry:
O=C(c1ccc(Cl)cc1)N(C(=O)N1CCC(c2ccccc2)CC1)c1ccccc1 ... 98.7 µM
CC(C)=CCC/C(=C/CC/C(=C\CCc1ccoc1)C(=O)O)C(=O)O ... > 100 µM
O=c1c2nc3ccccc3c(=O)n2ncn1-c1ccccc1Cl ... > 100 µM

Problem: Name the reported TGI value associated with the compound NC(=O)c1c(NC(=O)c2ccccn2)sc2c1CCC(=O)C2
Solution: 6.63 µM

Problem: If you can, please state the reported TGI value of CC(=O)OC[C@]12CC[C@@H](C(=O)CBr)[C@@H]1[C@H]1CC[C@@H]3[C@@]4(C)CCCNC(C)(C)[C@@H]4CC[C@@]3(C)[C@]1(C)CC2 .
Solution: 4.04 µM

Problem: For the compound shown here, COC(=O)C(C#CCCCCC#CC(NC(=O)OCc1ccccc1)(C(=O)OC)C(F)(F)F)(NC(=O)OCc1ccccc1)C(F)(F)F (stereo not drawn) , give the reported TGI.
Solution: > 100 µM

Problem: Entry COc1cc2oc3cc(=O)cc4oc(-c5ccccc5)cc(c2c2c1CCC(c1ccccc1)O2)c43 (stereo not drawn) has what TGI?
Solution: > 100 µM

* * *

# Tested on: SK-OV-3 ovarian
# TEST SUMMARY: NCI tumour cell line growth inhibition, 48 h
TGI: recorded values

CN(C)C(=S)/N=c1\ssc(=S)n1Cc1cccnc1 ... > 81.1 µM
O=c1cccccc1[O-].O=c1cccccc1[O-].[O]=[U+2]=[O] ... 74.5 µM
Fc1ccc(C(OCCN2CCC3CCC(C2)N3C/C=C/c2ccco2)c2ccc(F)cc2)cc1 (stereo not given) ... 30.3 µM
CCCc1cc(=O)[nH]c(-n2nc(C)cc2C)n1 ... > 100 µM
COc1ccc2c(c1)[n+]([O-])c(-c1ccc(OC)c(OC)c1)c(N)[n+]2[O-] ... > 100 µM

Problem: What measured TGI is associated with C1COCCN1.C1COCCN1.NC1CCCCC1N.[Cl-].[Pt+2] (stereo not given) on SK-OV-3 ovarian?
Solution: > 100 µM

Problem: Query the reported TGI for SK-OV-3 ovarian; item: CCOC(=O)c1cc2c(n1Cc1cccc(OC)c1)-c1oncc1CCC2
Solution: > 100 µM

Problem: Request: TGI, test system SK-OV-3 ovarian, entry O=CN/C=C/c1cccc(O)c1
Solution: > 100 µM

Problem: Enter reported TGI observed with SK-OV-3 ovarian for CNC(=O)OCc1c(CO)nc(SC)n1C
Solution: > 100 µM

Problem: Record Cc1c(N2C(=O)CS(=O)(=O)C2c2cccc(Oc3ccccc3)c2)c(=O)n(-c2ccccc2)n1C (stereo not given) : what is its TGI with SK-OV-3 ovarian?
Solution: > 100 µM

Problem: So what TGI did Cc1nn(C(=O)Cc2ccccc2)c2c1C(c1ccc(O)cc1O)SC(N)=N2 (stereo not given) get with SK-OV-3 ovarian?
Solution: > 100 µM

Problem: Item: C=CCNC(=O)N(CCCC(NC(C)=O)C(=O)NCc1ccccc1)Cc1ccccc1 (stereo not given) Test system: SK-OV-3 ovarian Read-out: TGI Value: ?
Solution: > 100 µM

Problem: # value lookup — system SK-OV-3 ovarian, readout TGI, item CNc1ccc2c(c1)[C@@]1(C)c3ccccc3[C@@H](C2)N1C
Solution: > 100 µM

Problem: Request - read-out TGI | tested on SK-OV-3 ovarian | molecule Cn1c2ccc3cc2c(=S)c2cc(ccc21)OCCOCCOCCOCCOCCO3
Solution: > 10 µM

Problem: Item COc1cc([C@@H]2c3cc4c(cc3[C@@H](OC(=O)c3ccc(N)cc3)C3COC(=O)[C@@H]32)OCO4)cc(OC)c1O (stereo not given in full) with SK-OV-3 ovarian - TGI?
Solution: 20.7 µM
